target: T1, GFP-9S library array, motif 4 ND N98D;D124L (synthetic construct, N98D;D124L)
T1 chain: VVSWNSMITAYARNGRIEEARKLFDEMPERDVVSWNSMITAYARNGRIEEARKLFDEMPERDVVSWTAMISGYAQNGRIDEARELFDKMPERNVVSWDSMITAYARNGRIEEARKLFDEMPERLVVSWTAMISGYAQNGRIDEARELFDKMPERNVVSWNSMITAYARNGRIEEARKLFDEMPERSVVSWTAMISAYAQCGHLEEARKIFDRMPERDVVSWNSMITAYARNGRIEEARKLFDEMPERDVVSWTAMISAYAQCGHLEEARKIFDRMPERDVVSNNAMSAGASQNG
experiment summary: high-throughput RNA pulldown from lysate on Ni-NTA beads; HRP: 50 mM Tris pH 8, 150 mM NaCl, 1 mM beta-mercaptoethanol, 50 ug/ml BSA, 3 ug/ml yeast RNA, 0.5% heparin; ITC and FP: Tris pH 8, 200 mM KCl, 5% glycerol; MST: 50 mM Tris pH 8, 200 mM NaCl, 1 mM DTT, BSA, heparin, 0.05% Tween 20
experimental setup: tags: N-terminal His-eGFP; label: 5' IRDye 800CW
parameter: Kd (nM)

binder="AUUAAACGUGA (ssRNA) [IR-rpoA-A]" parameter=Kd val=90.5
binder="AUUAUACGUGA (ssRNA) [IR-rpoA-U]" parameter=Kd val=408
